assay: qHTS Assay for Lipid Storage Modulators (AID 1519); conditions: Drosophila S3 cells, BODIPY lipid droplet/cell ratio, laser cytometry; measured here: lipid channel max response; cells loaded with oleic acid
Results filed as inconclusive are left out.
experimentalEndpoint: max response (%)

{"compound": "CCN1CCN(C(=O)NC(C(=O)NC2C(=O)N3C2SC(C)(C)C3C(=O)O)c2ccccc2)C(=O)C1=O (centres undefined)", "readoutNumber": 0.752}
{"compound": "CCC(=O)O[C@@]1(C(=O)CCl)C(C)CC2C3CCC4=CC(=O)C=C[C@@]4(C)[C@]3(F)C(O)C[C@]21C (some centres undefined)", "readoutNumber": 20.1}
{"compound": "O=C(O)CCC(=O)C(=O)O (tested in a mixture with another compound)", "readoutNumber": 18.6}
{"compound": "CC(=O)OCC(=O)[C@@]1(O)CC[C@@H]2[C@H]3CCC4=CC(=O)CC[C@]4(C)[C@]3(F)[C@@H](O)C[C@@]21C", "readoutNumber": 9.02}

* * *

target: Rap guanine nucleotide exchange factor 3 (Homo sapiens) (UniProt O95398); experiment: Counterscreen qHTS for agonist of cAMP-regulated guanine nucleotide exchange factor 3 (EPAC1) (AID 1645889); conditions: EPAC1 Rap1B-BODIPY-GDP exchange, fluorescence; series mostly up to 154 µM; note: % of control where 0% means no effect; nearly all actives have a fitted effect of over 40% in size
Results filed as inconclusive are left out. Calls of active or inactive are those of the source. The call rests on the fitted dose curve; in most records, active means well fitted activation curve with a large enough effect; inconclusive means small, poorly fitted or top-dose-only effect, or another doubt; inactive means no such curve, though single readings can be large or run the other way.
experimentalEndpoint: activation

{"compound": "CN1C(=O)C2(C(C#N)=C(N)N(c3cc(Cl)cc(Cl)c3)C3=C2C(=O)CC(C)(C)C3)c2ccccc21 (stereo not given)", "result": "inactive"}
{"compound": "COc1cc(/C=C(\\C#N)C(=O)NC(C)C)cc(Cl)c1O", "result": "inactive"}
{"compound": "CCCCn1c(N)c(N(CC(C)C)C(=O)C2CCN(C(=O)c3ccc(Cl)cc3)CC2)c(=O)[nH]c1=O", "result": "inactive"}
{"compound": "Cc1ccc(-n2nc3c(=O)n(CCCC(=O)NCc4ccccc4F)nc(C)c3c2C)cc1", "result": "inactive"}
{"compound": "O=C1/C(=C/c2ccc(F)cc2)SC(=S)N1NS(=O)(=O)c1ccccc1", "result": "inactive"}
{"compound": "O=c1cc(-c2ccccc2)nc2c(-c3ccccc3)c(C(F)(F)F)[nH]n12", "result": "inactive"}
{"compound": "Cc1ccccc1OCCC(=O)OCC(=O)N1CCN(S(=O)(=O)c2ccc(Cl)cc2)CC1", "result": "26.1% [at 30.8 µM] (inactive)"}
{"compound": "COc1ccc(CCNC(=O)Cn2nc(C)c3c(C)n(-c4ccc(C)cc4)nc3c2=O)c(OC)c1", "result": "inactive"}
{"compound": "CCOc1cc(/C=N/Nc2ccc(S(=O)(=O)Nc3ccccc3C(=O)O)cc2[N+](=O)[O-])cc(Cl)c1O", "result": "inactive"}
{"compound": "CC(C)CNc1cc(Cl)c(S(=O)(=O)NCC(C)C)cc1C(=O)O", "result": "-0.574% [at 30.8 µM] (inactive)"}
{"compound": "Cc1cc(C)c2nc(C)cc(Nc3ccc(C(=O)NCCO)cc3)c2c1", "result": "inactive"}
{"compound": "Cc1cccc(C2c3[nH]c4ccccc4c3CCN2Cc2cccn2-c2ncccn2)c1 (stereo not given)", "result": "17.6% [at 30.8 µM] (inactive)"}
{"compound": "COC(=O)c1ccc(N2C(=O)CC(N3CCOCC3)C2=O)cc1 (stereo not given)", "result": "10.6% [at 30.8 µM] (inactive)"}
{"compound": "O=S(=O)(NCc1cn2ccsc2n1)c1cccs1", "result": "3.73% [at 30.8 µM] (inactive)"}
{"compound": "COc1ccc(C(C)=NNc2ccc([N+](=O)[O-])cc2S(=O)(=O)Nc2ccccc2C(=O)O)c(OC)c1", "result": "inactive"}
{"compound": "Cc1ccc(F)c(NC(=O)/C(C#N)=C(\\O)c2ccc(C(C)(C)C)cc2)c1", "result": "14.8% [at 30.8 µM] (inactive)"}
{"compound": "Cc1cc(N=Nc2ccccc2C(=O)O)c(C)c(C)c1O", "result": "4.71% [at 30.8 µM] (inactive)"}
{"compound": "CCC(C)NC(=O)CS(=O)Cc1nc(-c2ccccc2C)oc1C (stereo not given)", "result": "inactive"}
{"compound": "O=C(c1ccc(Br)o1)N1CCN(c2ccc3nnc(-c4ccc(F)cc4)n3n2)CC1", "result": "25.2% [at 30.8 µM] (inactive)"}
{"compound": "CCCCC(Sc1nc2cc3c(cc2c(=O)n1CCCC(=O)NCc1ccc2c(c1)OCO2)OCO3)C(=O)OCC (stereo not given)", "result": "inactive"}

* * *

assay: qHTS profiling for inhibitors of Plasmodium falciparum proliferation (AID 504749); note: nearly all actives have a fitted effect of over 60% in size; note: potency is the fitted concentration of half-maximal effect; details: P. falciparum in erythrocytes, SYBR Green DNA, 72 h; parasite line A
Inconclusive results are not listed. The source made the active and inactive calls. Calls come from the whole dose curve; as a rule, active = well fitted inhibition curve with a large enough effect; inconclusive = small, poorly fitted or top-dose-only effect; inactive = flat fitted curve, though single readings scatter.
Reported Potency is given for each of the following compounds.

{"compound": "NC(C(=O)O)[C@@H]1CC(Cl)=NO1 (some centres undefined)", "Potency": "1.26 µM (active)"}
{"compound": "COc1cc(N)c(Cl)cc1C(=O)N[C@H]1CCN(CCCOc2ccc(F)cc2)C[C@H]1OC", "Potency": "3.55 µM (active)"}
{"compound": "COC1C=CO[C@@]2(C)Oc3c(C)c(O)c4c(O)c(c(C=NN5CCN(C)CC5)c(O)c4c3C2=O)NC(=O)/C(C)=C\\C=CC(C)C(O)[C@@H](C)C(O)C(C)[C@H](OC(C)=O)C1C (some centres undefined)", "Potency": "3.98 µM (active)"}
{"compound": "COc1ccc2cc1Oc1ccc(cc1)CC1c3c(cc4c(c3Oc3cc5c(cc3OC)CCN(C)C5C2)OCO4)CCN1C (centres undefined)", "Potency": "8.91 µM (active)"}

* * *

system: CP203; test: qHTS profiling for inhibitors of Plasmodium falciparum proliferation (AID 504749); note: nearly all actives have a fitted effect of over 60% in size; conditions: P. falciparum in erythrocytes, SYBR Green DNA, 72 h; series mostly up to 12.8 µM
Results filed as inconclusive are left out. The source made the active and inactive calls. The call rests on the fitted dose curve; in most records, active means well fitted inhibition curve with a large enough effect; inconclusive means small, poorly fitted or top-dose-only effect; inactive means flat fitted curve, though single readings scatter.
Outcomes: T (active), F (inactive)

{"smilesRecord": "Clc1ccc([C@H](Cn2ccnc2)OCc2csc3c(Cl)cccc23)c(Cl)c1", "labelValue": "T"}
{"smilesRecord": "OCCN1CCN(CCC=C2c3ccccc3Sc3ccc(Cl)cc32)CC1", "labelValue": "F"}
{"smilesRecord": "CC(C)(C)NC[C@H](O)COc1cccc2c1C[C@@H](O)[C@@H](O)C2", "labelValue": "F"}
{"smilesRecord": "CN(C/C=C\\c1ccccc1)Cc1cccc2ccccc12", "labelValue": "F"}
{"smilesRecord": "C[C@]1(c2ccccc2)OC(C(=O)O)=CC1=O", "labelValue": "F"}
{"smilesRecord": "C=CCN1C(=CCO)[C@H]2C[C@H]3[C@@H]1CC[C@@]31c3ccccc3N3C=C4[C@@H]5N(/C=C/2[C@H]31)c1ccccc1[C@]51CC[C@H]2[C@H]1C[C@@H]4/C(=C/CO)N2CC=C", "labelValue": "F"}
{"smilesRecord": "CC(C)(C)NC[C@@H](O)COc1ccccc1C1CCCC1", "labelValue": "T"}
{"smilesRecord": "NC[C@@H]1O[C@H](O[C@H]2[C@H](O)[C@H](O[C@@H]3O[C@H](CO)[C@@H](O)[C@H](N)[C@@H]3O)[C@@H](N)C[C@H]2N)[C@@H](O)[C@H](O)[C@@H]1O", "labelValue": "F"}
{"smilesRecord": "Clc1ccc(CC[C@H](Cn2ccnc2)Sc2c(Cl)cccc2Cl)cc1", "labelValue": "T"}

* * *

tested on: CP203; experiment: qHTS profiling for inhibitors of Plasmodium falciparum proliferation (AID 504749); note: nearly all actives have a fitted effect of over 60% in size; conditions: P. falciparum in erythrocytes, SYBR Green DNA, 72 h; series mostly up to 12.8 µM
Results filed as inconclusive are left out. Activity calls are given as the source filed them. The call rests on the fitted dose curve; in most records, active means well fitted inhibition curve with a large enough effect; inconclusive means small, poorly fitted or top-dose-only effect; inactive means flat fitted curve, though single readings scatter. Peptide text beside a SMILES is read from it.
Outcomes: active, inactive

{"molecule": "O=C1O[C@@H]([C@@H](O)CO)[C@@H](O)[C@H]1O", "labelValue": "inactive"}
{"molecule": "CCCC(=O)O[C@]1(C(=O)CO)CCC2[C@@H]3CCC4=CC(=O)CC[C@]4(C)C3C(O)C[C@]21C (stereo not given in full)", "labelValue": "inactive"}
{"molecule": "CCC(=O)O[C@@]1(C(=O)CCl)C(C)CC2C3CCC4=CC(=O)C=C[C@@]4(C)[C@]3(F)C(O)C[C@]21C (stereo not given in full)", "labelValue": "active"}
{"molecule": "COC1OC(CO)C(OC2OC(C(=O)O)C(OC3OC(COS(=O)(=O)O)C(OC4OC(C(=O)O)C(OC5OC(CO)C(OC6OC(C(=O)O)C(OC7OC(COS(=O)(=O)O)C(OC8OC(C(=O)O)=C[C@H](O)C8OS(=O)(=O)O)C(O)C7NC(C)=O)[C@@H](O)C6O)C(O)C5NC(C)=O)[C@@H](O)C4O)C(O)C3NC(C)=O)[C@@H](O)C2O)C(O)C1NC(C)=O (stereo not given in full)", "labelValue": "inactive"}
{"molecule": "C[C@]12C=CC(=O)C=C1CCC1C2C(O)C[C@]2(C)C1CC[C@]2(O)C(=O)CO (stereo not given in full)", "labelValue": "inactive"}
{"molecule": "CC(=O)C[C@H](c1ccc([N+](=O)[O-])cc1)c1c(O)c2ccccc2oc1=O", "labelValue": "inactive"}
{"molecule": "COc1cc(N)c(Cl)cc1C(=O)N[C@H]1CCN(CCCOc2ccc(F)cc2)C[C@H]1OC", "labelValue": "inactive"}
{"molecule": "C[C@@H]1O[C@H](O[C@@H]2\\C=C/C=C\\C=C/C=C\\C[C@H](C)OC(=O)/C=C\\[C@H]3O[C@@H]3C[C@H](O)C[C@]3(O)C[C@@H](O)[C@@H](C(=O)O)[C@H](C2)O3)[C@@H](O)[C@H](N)[C@@H]1O (stereo in doubt)", "labelValue": "inactive"}
{"molecule": "COc1ccc([C@@H]2CC(=O)c3c(O)cc(O[C@H]4O[C@@H](CO[C@H]5O[C@@H](C)[C@@H](O)[C@@H](O)[C@@H]5O)[C@@H](O)[C@@H](O)[C@@H]4O)cc3O2)cc1O", "labelValue": "inactive"}
{"molecule": "C[C@H](O)Cn1cnc2c1c(=O)n(C)c(=O)n2C", "labelValue": "inactive"}
{"molecule": "O=C1O[C@H](CN2CCOCC2)CN1/N=C\\c1ccc([N+](=O)[O-])o1", "labelValue": "inactive"}
{"molecule": "CC(=O)[C@@H]1CC[C@@H]2[C@@H]3C[C@H](C)C4=CC(=O)CC[C@@]4(C)[C@H]3[C@H](O)C[C@]21C", "labelValue": "inactive"}
{"molecule": "CN(C)CCOC(=O)[C@@H](c1ccccc1)C1(O)CCCC1", "labelValue": "inactive"}
{"molecule": "C[C@@]12C=CC(=O)C=C1CCC1C3CC(O)[C@@](O)(C(=O)CO)[C@]3(C)CC(O)[C@]12F (stereo not given in full)", "labelValue": "inactive"}
{"molecule": "COC(=O)C(Cc1ccccc1)NC(=O)C(N)CC(=O)O (stereo not drawn) (H-Asp-Phe-OMe; configuration not given here)", "labelValue": "inactive"}
{"molecule": "CC[C@@H]1OC(=O)[C@H](C)[C@H](O[C@@H]2C[C@](C)(OC)[C@H](O)[C@H](C)O2)[C@H](C)[C@H](O[C@@H]2O[C@@H](C)C[C@@H](N(C)C)[C@@H]2O)[C@](C)(O)C[C@H](C)C(=NOCOCCOC)[C@H](C)[C@H](O)[C@]1(C)O", "labelValue": "inactive"}
{"molecule": "CO[C@]1(NC(=O)[C@H](C(=O)O)c2ccc(O)cc2)C(=O)N2C(C(=O)O)=C(CSc3nnnn3C)CO[C@H]21", "labelValue": "inactive"}
{"molecule": "CO[C@@H]1C[C@H](O[C@H]2[C@@H](C)[C@H](O[C@@H]3O[C@@H](C)C[C@@H](N(C)C)[C@@H]3OC(C)=O)[C@H](C)C[C@]3(CO3)C(=O)[C@H](C)[C@H](OC(C)=O)[C@H](C)[C@H](C)OC(=O)[C@@H]2C)O[C@H](C)[C@@H]1OC(C)=O", "labelValue": "inactive"}
{"molecule": "C[C@]12CCC(=O)C=C1CCC1C2C(=O)C[C@]2(C)C1CC[C@]2(O)C(=O)CO (stereo not given in full)", "labelValue": "inactive"}
{"molecule": "C[C@@H](C(=O)O)c1ccc(C(=O)c2ccccc2)s1", "labelValue": "inactive"}
{"molecule": "Nc1nc(NC2CC2)c2ncn([C@H]3C=C[C@@H](CO)C3)c2n1", "labelValue": "inactive"}
{"molecule": "CCN[C@@H]1CN(CCCOC)S(=O)(=O)c2sc(S(N)(=O)=O)cc21", "labelValue": "inactive"}
{"molecule": "CCOC(=O)O[C@]1(C(=O)COC(=O)CC)CC[C@@H]2[C@@H]3CCC4=CC(=O)C=C[C@@]4(C)[C@H]3[C@H](O)C[C@]21C", "labelValue": "inactive"}
{"molecule": "CC[C@H](Cc1c(I)cc(I)c(N)c1I)C(=O)O", "labelValue": "inactive"}
{"molecule": "CC(C)NC[C@H]1CCc2cc(CO)c([N+](=O)[O-])cc2N1", "labelValue": "inactive"}
{"molecule": "CN(C)CCCOC1C(C(O)CO)OC2OC(C)(C)O[C@@H]21 (stereo not given in full)", "labelValue": "inactive"}
{"molecule": "CC1(C)S[C@H]2C(NC(=O)[C@@H](N)c3ccc(O)cc3)C(=O)N2[C@@H]1C(=O)O (stereo not given in full)", "labelValue": "inactive"}
{"molecule": "COc1cc2nc(N3CCN(C(=O)[C@@H]4CCCO4)CC3)nc(N)c2cc1OC", "labelValue": "inactive"}
{"molecule": "C[C@H](C(=O)O)c1cccc(Oc2ccccc2)c1", "labelValue": "inactive"}
{"molecule": "CC1(C)S[C@@H]2[C@H](NC(=O)[C@@H](N)c3ccccc3)C(=O)N2[C@H]1C(=O)O[C@H]1OC(=O)c2ccccc21", "labelValue": "inactive"}
